Sourced from patent US20250320496A1

ABCB11 mRNA FC (5 μM ASO vs. UNT) values, listed per item
Tested on: human ABCB11 mRNA
Assay: ASO treatment of primary human hepatocytes (PHH), ABCB11 mRNA by RT-qPCR normalized to B2M
Assay type: cell-based
Settings: primary human hepatocytes, 5 μM ASO, normalized to untreated PHHs (UNT)
Strand notation (5' to 3'): a small letter for the sugar, then the base; units joined by * are phosphorothioate-linked, units joined directly phosphodiester-linked; [ ] holds rarer units or linkages, { } end groups; capitals alone tell only the bases. e = 2'-O-(2-methoxyethyl) (MOE); l = locked nucleic acid (LNA); [5mC] = 5-methylcytosine; d = 2'-deoxy (DNA)
Write the value in fold change as a bare number.

Input line: Look up ABCB11 mRNA FC (5 μM ASO vs. UNT) for this substance: CO-6972 (antisense eA*eA*eA*eT*eG*eG*eG*eT*eG*eT*eG*eG*eA*eT*eG*eT*eA*eG*eA*eT)
Output line: 1.207

Input line: Look up ABCB11 mRNA FC (5 μM ASO vs. UNT) for this substance: CO-7155 (antisense eA*e[5mC]*e[5mC]*eT*eT*dA*dG*lG*dA*dG*lG*dA*dT*lT*dA*dT*lT*dT*dA*eA*e[5mC]*e[5mC]*eT*e[5mC])
Output line: 1.253

Input line: Look up ABCB11 mRNA FC (5 μM ASO vs. UNT) for this substance: CO-7048 (antisense eT*eG*eG*eA*eG*eT*eT*eG*eT*eG*eT*eT*eT*eT*eG*e[5mC]*eT*eT*eG*eG)
Output line: 1.175

Input line: Look up ABCB11 mRNA FC (5 μM ASO vs. UNT) for this substance: CO-4513: ASO targeting a downstream regRNA from enhancer RR62_v2 (antisense eG*eT*eG*eA*eG*eG*e[5mC]*eA*eT*e[5mC]*eA*eG*eG*eT*eA*eA*eG*eT*eT*e[5mC])
Output line: 1.122

----------
Test system: human ABCB11 mRNA
Test: ASO treatment of primary human hepatocytes (PHH), ABCB11 mRNA by RT-qPCR normalized to B2M
Type: cell-based
Details: primary human hepatocytes, 5 μM ASO, normalized to untreated PHHs (UNT)
Method: Primary human hepatocytes (PHH) were thawed using Lonza Human Cryopreserved Hepatocyte Thawing Medium and plated in 96-well collagen-coated plates (5.5-6.0×10^4 cells per well). […] 2 μl of cDNA was used for reverse transcription-quantitative PCR (RT-qPCR) analyses using standard Taqman” reagents from Applied Biosystems™ to measure ABCB11 and CYP7A1 gene expression. […]
Strand notation (5' to 3'): a small letter for the sugar, then the base; units joined by * are phosphorothioate-linked, units joined directly phosphodiester-linked; [ ] holds rarer units or linkages, { } end groups; capitals alone tell only the bases. e = 2'-O-(2-methoxyethyl) (MOE); l = locked nucleic acid (LNA); [5mC] = 5-methylcytosine; d = 2'-deoxy (DNA)
quantityMeasured: ABCB11 mRNA FC (5 μM ASO vs. UNT) (fold change)
Write the value in fold change as a bare number.

substance: CO-4488 (antisense eA*eA*e[5mC]*eA*eT*eG*eT*e[5mC]*eA*eG*eA*e[5mC]*eA*eG*eT*eA*eG*eT*eT*e[5mC])
assaySystem: human ABCB11 mRNA
unitOfMeasurement: fold change
ABCB11 mRNA FC (5 μM ASO vs. UNT): 1.084

substance: CO-3974: ASO targeting the paRNA regRNA RR63 (antisense eT*e[5mC]*eT*eG*eG*eA*eA*eA*eA*eT*eA*eA*eT*eG*e[5mC]*e[5mC]*eT*eT*eT*e[5mC])
assaySystem: human ABCB11 mRNA
unitOfMeasurement: fold change
ABCB11 mRNA FC (5 μM ASO vs. UNT): 1.2

substance: CO-7033 (antisense eG*eA*eG*eA*e[5mC]*eA*eA*eA*eG*eA*eA*eT*e[5mC]*eG*e[5mC]*eT*eG*eT*eG*eG)
assaySystem: human ABCB11 mRNA
unitOfMeasurement: fold change
ABCB11 mRNA FC (5 μM ASO vs. UNT): 1.316

substance: CO-4063 (antisense eG*e[5mC]*eA*e[5mC]*e[5mC]*e[5mC]*eA*eA*e[5mC]*e[5mC]*eA*eA*eG*eT*e[5mC]*eT*eT*eG*eA*e[5mC])
assaySystem: human ABCB11 mRNA
unitOfMeasurement: fold change
ABCB11 mRNA FC (5 μM ASO vs. UNT): 1.457

substance: CO-7038 (antisense eA*eA*e[5mC]*eT*eG*eT*eA*e[5mC]*eA*eT*eT*eT*eA*eG*eA*eG*eA*e[5mC]*eA*eA)
assaySystem: human ABCB11 mRNA
unitOfMeasurement: fold change
ABCB11 mRNA FC (5 μM ASO vs. UNT): 1.189

substance: CO-4036 (antisense eG*e[5mC]*eA*eA*eA*eT*eA*eG*eA*eT*eA*eA*eT*eG*eT*eT*e[5mC]*eT*eT*eG)
assaySystem: human ABCB11 mRNA
unitOfMeasurement: fold change
ABCB11 mRNA FC (5 μM ASO vs. UNT): 1.235

substance: CO-7177 (antisense eG*eT*eG*eG*lA*dG*d[5mC]*dA*lA*dA*d[5mC]*dT*lA*dG*dG*e[5mC]*lA*e[5mC]*eT*eG)
assaySystem: human ABCB11 mRNA
unitOfMeasurement: fold change
ABCB11 mRNA FC (5 μM ASO vs. UNT): 1.455

substance: CO-4019 (antisense eA*eG*eA*eG*eT*eG*eG*eT*eG*eT*eA*e[5mC]*eA*eT*eG*eG*eG*eT*eG*eT)
assaySystem: human ABCB11 mRNA
unitOfMeasurement: fold change
ABCB11 mRNA FC (5 μM ASO vs. UNT): 1.028

Input line: Given the entry CO-7102 (eT*eA*eT*e[5mC]*eT*eG*eG*dA*dA*dA*dA*dT*dA*dA*dT*dG*d[5mC]*e[5mC]*eT*eT*eT*e[5mC]*eT*eA; antisense) , what ABCB11 mRNA FC (5 μM ASO vs. UNT) was observed with human ABCB11 mRNA?
Output line: 1.068

Input line: Given the entry CO-7101 (eA*eT*e[5mC]*eT*eG*lG*dA*dA*lA*dA*dT*dA*dA*lT*dG*d[5mC]*l[5mC]*eT*eT*eT*e[5mC]*eT; antisense) , what ABCB11 mRNA FC (5 μM ASO vs. UNT) was observed with human ABCB11 mRNA?
Output line: 1.165

Input line: Given the entry CO-4031 (antisense eG*eG*e[5mC]*eT*eT*e[5mC]*e[5mC]*eT*e[5mC]*eA*eA*eA*eT*eT*e[5mC]*eA*eT*eA*eT*eT) , what ABCB11 mRNA FC (5 μM ASO vs. UNT) was observed with human ABCB11 mRNA?
Output line: 1.427

Input line: Given the entry CO-7163 (antisense e[5mC]*eA*eG*eA*e[5mC]*eA*eT*eG*eA*eT*eG*eT*eG*eG*eA*eG*eG*eT*eG*eG) , what ABCB11 mRNA FC (5 μM ASO vs. UNT) was observed with human ABCB11 mRNA?
Output line: 1.308

----------
System: human ABCB11 mRNA
Experiment: ASO treatment of primary human hepatocytes (PHH), ABCB11 mRNA by RT-qPCR normalized to B2M
Format: cell-based
Conditions: primary human hepatocytes, 5 μM ASO, normalized to untreated PHHs (UNT)
Strand notation (5' to 3'): a small letter for the sugar, then the base; units joined by * are phosphorothioate-linked, units joined directly phosphodiester-linked; [ ] holds rarer units or linkages, { } end groups; capitals alone tell only the bases. e = 2'-O-(2-methoxyethyl) (MOE); l = locked nucleic acid (LNA); [5mC] = 5-methylcytosine; d = 2'-deoxy (DNA)
quantityMeasured: ABCB11 mRNA FC (5 μM ASO vs. UNT) (fold change)
Write the value in fold change as a bare number.

A selection of reference data follows.
substance: CO-7150: derivative ASO with additional chemical modifications based on parent ASO CO-4517 (antisense e[5mC]*e[5mC]*eT*eT*eA*dG*dG*dA*eG*dG*dA*dT*dT*eA*dT*dT*dT*eA*eA*e[5mC]*e[5mC]*eT)
ABCB11 mRNA FC (5 μM ASO vs. UNT) / fold change: 1.505
--
substance: CO-4485 (antisense eG*eT*e[5mC]*eA*eA*eG*eA*eT*e[5mC]*e[5mC]*e[5mC]*e[5mC]*eG*eA*eA*eG*eT*eT*eG*eA)
ABCB11 mRNA FC (5 μM ASO vs. UNT) / fold change: 1.194
--
substance: CO-7113 (TACATTTAGAGACAAAGAATCGCT; MOE/LNA gapmer, PS/PO backbone, 5-methylcytosine; listed as DNA; modified_base 1..24: mod_base = OTHER; note = Phosphorothioate linkage; modified_base 1..5: mod_base = OTHER; note = 2'-O-(2-methoxyethyl) ribonucleotide; misc_feature 1..5: note = RNA; misc_feature 6..7: note = DNA; misc_feature 8: note = RNA)
ABCB11 mRNA FC (5 μM ASO vs. UNT) / fold change: 1.179
--
substance: CO-4042 (antisense e[5mC]*eT*e[5mC]*eT*e[5mC]*eG*eT*eT*e[5mC]*e[5mC]*eA*eA*eG*eG*eT*eG*eA*eA*eT*e[5mC])
ABCB11 mRNA FC (5 μM ASO vs. UNT) / fold change: 0.605
--
substance: CO-6992 (antisense eT*eG*eG*lA*eT*eGeT*lA*eG*eA*eT*lG*eA*eA*eT*lG*eG*e[5mC]*eA*eA)
ABCB11 mRNA FC (5 μM ASO vs. UNT) / fold change: 0.992
--
substance: CO-4061 (antisense eA*eT*eT*e[5mC]*eA*eT*eT*eG*e[5mC]*eT*eG*eA*eA*eG*eG*e[5mC]*eT*eG*eG*eA)
ABCB11 mRNA FC (5 μM ASO vs. UNT) / fold change: 1.233
--
substance: CO-6987 (antisense eT*eG*eG*eA*lT*dG*dT*dA*lG*dA*dT*dG*lA*dA*dT*eG*lG*e[5mC]*eA*eA)
ABCB11 mRNA FC (5 μM ASO vs. UNT) / fold change: 1.026
--
substance: CO-7178: derivative ASO with additional chemical modifications based on parent ASO CO-4529 (antisense eG*eT*eG*lG*eA*lG*e[5mC]*lA*eA*lA*e[5mC]*lT*eA*lG*eG*l[5mC]*eA*l[5mC]*eT*eG)
ABCB11 mRNA FC (5 μM ASO vs. UNT) / fold change: 1.737

Input line: Look up ABCB11 mRNA FC (5 μM ASO vs. UNT) for this substance: CO-7098 (eA*eT*e[5mC]eT*eG*eG*dA*dA*dA*dA*dT*dA*dA*dT*dG*d[5mC]*e[5mC]*eT*eT*eT*e[5mC]*eT)
Output line: 1.04

Input line: Look up ABCB11 mRNA FC (5 μM ASO vs. UNT) for this substance: CO-6997 (antisense eG*eT*eG*eA*lG*dG*d[5mC]*dA*lT*d[5mC]*dA*dG*lG*dT*dA*eA*lG*eT*eT*e[5mC])
Output line: 1.058
